B1: FBF1 (parent)
chain: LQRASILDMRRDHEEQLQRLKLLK

Variants of: B1
Assay: protein stability index of a GFP-peptide fusion (GPS, HEK-293T) (PSI 1-6); higher = more stable;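 also: lentivirally expressed fusions sorted by FACS into six bins by GFP to DsRed ratio, PSI derived from sequencing read proportions per bin multiplied by bin number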
Details: c terminus: a fixed tail appended
Consider the following variants and their measured protein stability index readings.
Please state the value as a number alone, without comment.

Record excerpt, results attached:
[in] Quick one: protein stability index for `R10H` ?
[out] 3.45

[in] So what's the measured protein stability index for this one? `Q2W`
[out] 2.4

---
[in] Would you kindly share the measured protein stability index for `K24Q` ?
[out] 2.68

The reported measurements were obtained from the supplement of paper PMC10567573.
